Measured values drawn from PubChem BioAssay for this set.

target: Plasmodium falciparum protein kinase 6 (PK6, PF3D7_1337100) (UniProt Q8IDW1); experiment: PfPK6 kinase inhibitors, biochemical, TCAMS library (AID 1159586); details: recombinant PfPK6, Kinase-Glo ATP depletion luminescence
Entries with a potency or affinity are not part of this list. The source made the active and inactive calls. How the calls were made is not given here.
readout-type: outcome

Record excerpt, results attached:
1) N#Cc1cccc(C(=O)Nc2ccc(-c3ccc(CN4CCCC4)cc3)cc2)c1 = inactive
2) CCCCCN1CCCC(NS(=O)(=O)c2ccc(C(=O)Nc3cccc(C(F)(F)F)c3)cc2)C1 (centres undefined) = inactive
3) Cc1cccc2[nH]c(-c3cccc(-c4cccc(NC(=O)Nc5cccc(C#N)c5)c4)c3)nc12 = inactive
4) COc1cc(Cc2cnc(N)nc2N)c2c(c1OC)OC(C)(C)C=C2 = inactive
5) COc1ccc(C=NNc2cc(C)nc3ccc(OC)cc23)c(OC)c1 = inactive
6) CCN(CC)CCN(Cc1ccc(-c2ccc(C(F)(F)F)cc2)cc1)C(=O)Cn1c(CCc2cc(F)c(F)cc2F)nc(=O)c2ccccc21 = inactive
7) Cc1ccc(CNC(=O)[C@H](CCCN)Nc2nc(NCC3CCCCC3)ncc2C)cc1 = inactive
8) C=CCn1c(=N)c(C(=O)NCc2ccc(F)cc2)cc2c(=O)n3cccc(C)c3nc21 = inactive
9) Cc1cc(C)cc(Oc2c(C(F)(F)F)oc3c(CN4CC(C)OC(C)C4)c(O)ccc3c2=O)c1 (centres undefined) = inactive
10) Cc1cc(CN2CC[C@H](NC(=O)c3ccc(Cl)c(Cl)c3)C2)ccc1OC1CCN(Cc2ccccc2)CC1 = inactive

// input: 5 compounds below; output: outcome for each
1. Cn1cncc1C(=O)Nc1cccc(-c2ccc(-c3nc4ccc(F)cc4[nH]3)s2)c1
2. CCNc1cc(C(=O)N[C@@H](Cc2ccccc2)[C@H](O)CN[C@@H](C)c2ccccc2)cc(N2CCCC2=O)c1
3. Cc1ccccc1C1CCN(C2CCC(NC(=O)/C=C/c3ccc(OC(F)(F)F)cc3)CC2)CC1 (centres undefined)
4. CCCCCCNc1cc(C)nc2ccc(OC)cc12
5. COCC(=O)N(Cc1ccccc1-c1cccc(CNCc2ccc3c(c2)OCO3)c1)C1CCN(Cc2ccccc2)CC1

Response:
["inactive", "inactive", "inactive", "inactive", "inactive"]

// input: 4 compounds below; output: outcome for each
1. O=C(CCc1cnc[nH]1)Nc1cccc(-c2cccc(-c3nc4ccc(C(F)(F)F)cc4[nH]3)c2)c1
2. NC(=O)c1ccccc1OCC(=O)Nc1ccc(-c2cccc(-c3nc4ccc(C(F)(F)F)cc4[nH]3)c2)cc1
3. CNC(=O)CNC(=O)COc1cccc2ccccc12
4. Cc1nn(-c2ccnc3cc(Cl)ccc23)c(C)c1C(=O)NCc1cc(Cl)cc(Cl)c1

Response:
["inactive", "inactive", "inactive", "inactive"]

====

experiment: antimalarial activity against Dd2 strain (AID 2302); conditions: P. falciparum Dd2 in RBCs, LDH growth readout, 72 h; at 2 µM; stronger effect = higher value
We use 60% as the dividing line for growth inhibition: on or above the line is Met, below is Not met.

// known answers, use as guide
1. COc1c(C2CCN(CCCCNC(=O)c3ccc(-c4ccc(Cl)cc4)cn3)CC2)ccc2c1CCCC2 = Not met
2. O=C(Nc1cccc(N2CCC(NCc3cnn(-c4cccc(F)c4)c3)CC2)c1)c1ccncc1 = Not met

Query: Threshold query (growth inhibition >= 60%) on CC(C)C(=O)NC(c1ccc(N(C)C)cc1)c1cc(Cl)c2cccnc2c1O (stereo not given)
Response: Met

Query: Threshold query (growth inhibition >= 60%) on `CN(CCON1C(N)=NC(N)=NC1(C)C)c1ccccc1`
Response: Met

Query: Threshold query (growth inhibition >= 60%) on `Cc1c(F)cc(C(=O)NC2CC2)cc1-c1ccc2c(cnn2S(=O)(=O)c2ccc(C#N)cc2)c1`
Response: Met

Query: Threshold query (growth inhibition >= 60%) on `CN(C)CCOc1cc(NC(=O)Nc2ccc(Cl)cc2C(F)(F)F)ccc1I`
Response: Not met

Query: Threshold query (growth inhibition >= 60%) on CS(=O)(=O)c1ccc(CCNCc2ccc(-c3ccc(CN(C(=O)C4CC(=O)c5ccccc54)C4Cc5ccccc5C4)cc3)nc2)cc1 (stereo not given)
Response: Not met

Query: Threshold query (growth inhibition >= 60%) on `Cc1[nH]c(C)c(-c2ccc(Oc3ccc(F)cc3)cc2)c(=O)c1Cl`
Response: Met

Query: Threshold query (growth inhibition >= 60%) on `O=C(Nc1cccc(Cl)c1)N(CCCn1ccnc1)Cc1csc(-c2ccc(CNCc3ccccc3)cc2)n1`
Response: Not met

Query: Threshold query (growth inhibition >= 60%) on `O=C(O)c1ccc2nc(-c3ccccn3)c(-c3ccccn3)nc2c1`
Response: Not met
